Data credit: paper PMC140036

experimental_target: mouse μ opioid receptor (Mus musculus, UniProt P42866)
Sequence (P42866 whole entry): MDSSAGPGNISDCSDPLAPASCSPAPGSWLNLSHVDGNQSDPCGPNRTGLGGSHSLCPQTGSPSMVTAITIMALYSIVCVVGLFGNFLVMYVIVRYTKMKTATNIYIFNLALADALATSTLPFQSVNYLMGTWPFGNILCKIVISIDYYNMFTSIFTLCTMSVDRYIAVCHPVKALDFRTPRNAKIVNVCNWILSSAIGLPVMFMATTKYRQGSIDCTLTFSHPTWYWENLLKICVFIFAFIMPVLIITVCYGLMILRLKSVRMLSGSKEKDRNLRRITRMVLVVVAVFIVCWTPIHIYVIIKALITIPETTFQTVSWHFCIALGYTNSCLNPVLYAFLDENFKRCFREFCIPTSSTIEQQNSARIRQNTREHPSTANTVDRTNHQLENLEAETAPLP
quantity_measured: pKi
Kindly note that pKi refers to -log10 of the concentration in mol/L and answer with the value alone.

Result for C[C@H]1[C@H]2Cc3ccc(O)cc3[C@]1(C)CCN2CC1CC1 [Cyclazocine] , tested on mouse μ opioid receptor (Mus musculus, UniProt P42866), pKi: 9.66

---

experimental_target: mouse μ opioid receptor (Mus musculus, UniProt P42866)
method_summary: cell-based
protocol_conditions: read-out: IC50 ± SEM
quantity_measured: pIC50
Kindly note that pIC50 refers to -log10 of the concentration in mol/L and answer with the value alone.

Value of pIC50 reported for the compound C=C1C[C@H](C)[C@H]2[C@H]3Cc4ccc(O)cc4[C@@]2(CCN3CC2CCC2)C1 is 8.47

---

experimental_target: mouse μ opioid receptor (Mus musculus, UniProt P42866)
method_summary: cell-based
quantity_measured: pIC50
Kindly note that pIC50 refers to -log10 of the concentration in mol/L and answer with the value alone.

- C[C@H]1[C@H]2Cc3ccc(O)cc3[C@]1(C)CCN2CC1CC1 [Cyclazocine]: 7.68
- Oc1ccc2c(c1)[C@@]13CCCC[C@@]1(O)[C@@H](C2)N(CC1CCC1)CC3 [Butorphanol]: 8.52
- C[C@@]12CCCCC[C@@H](Cc3ccc(O)cc31)[C@@H]2N [Dezocine]: 8.89
- C[C@H]1[C@H]2Cc3ccc(O)cc3[C@]1(C)CCN2C [Metazocine]: 8.70

Please turn your attention to the following entry.
Value of pIC50 reported for the compound C=CCN1CC[C@]23c4c5ccc(O)c4O[C@H]2[C@@H](O)C=C[C@H]3[C@H]1C5 [Nalorphine] is 8.57

---

experimental_target: mouse μ opioid receptor (Mus musculus, UniProt P42866)
method_summary: cell-based
protocol_conditions: HEK293, read-out: Max Inhibition
Parameter Emax: see the listing below.
# value in %; strip the unit string

- C[C@H]1[C@H]2Cc3ccc(O)cc3[C@]1(C)CCN2C: 41

Value of Emax reported for the molecule C=CCN1CC[C@]23c4c5ccc(O)c4O[C@H]2[C@@H](O)C=C[C@H]3[C@H]1C5 is 50

Value of Emax reported for the molecule C[C@H]1[C@H]2Cc3ccc(O)cc3[C@]1(C)CCN2CC1CC1 is 37

Value of Emax reported for the molecule Oc1ccc2c(c1)[C@@]13CCCC[C@@]1(O)[C@@H](C2)N(CC1CCC1)CC3 is 58

Value of Emax reported for the molecule C[C@@]12CCCCC[C@@H](Cc3ccc(O)cc31)[C@@H]2N is 43
